Reference source: patent US7422846B2

SYSTEM: GPR86 (P2Y13) human receptor (Homo sapiens, UniProt Q9BPV8, T179M)
Sequence (Q9BPV8 22-354 T179M): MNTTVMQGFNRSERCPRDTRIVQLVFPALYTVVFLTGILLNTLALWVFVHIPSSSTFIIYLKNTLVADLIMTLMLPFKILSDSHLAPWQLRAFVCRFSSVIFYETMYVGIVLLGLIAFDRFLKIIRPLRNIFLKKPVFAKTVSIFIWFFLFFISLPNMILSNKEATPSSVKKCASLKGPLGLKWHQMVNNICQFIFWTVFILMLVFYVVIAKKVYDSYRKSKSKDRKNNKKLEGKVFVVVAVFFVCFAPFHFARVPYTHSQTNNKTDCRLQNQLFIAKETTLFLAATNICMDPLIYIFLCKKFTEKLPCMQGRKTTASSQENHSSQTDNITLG
MEASUREMENT PROTOCOL: IP3 accumulation in 1321N1 cells (AG32) expressing GPR86 (P2Y13) together with Gα16
Format: cell-based
Set-up: expressed in transfected cells; host or cells: 1321N1 astrocytoma clone AG32 (stably expressing Gα16 from pERAEQ2), G418-selected
CONDITION DETAILS: AG32 cells; 100 nM and 10 μM; 30 s

>  <SAMPLE SMILES>
Nc1ncnc2c1ncn2[C@@H]1O[C@H](COP(=O)(O)OP(=O)(O)OP(=O)(O)OP(=O)(O)OP(=O)(O)OC[C@H]2O[C@@H](n3cnc4c(N)ncnc43)[C@H](O)[C@@H]2O)[C@@H](O)[C@H]1O

>  <effect on IP3 accumulation>
inactive

$$$$
>  <SAMPLE SMILES>
Nc1ncnc2c1ncn2[C@@H]1O[C@H](COP(=O)(O)OP(=O)(O)OP(=O)(O)OP(=O)(O)OC[C@H]2O[C@@H](n3cnc4c(N)ncnc43)[C@H](O)[C@@H]2O)[C@@H](O)[C@H]1O

>  <effect on IP3 accumulation>
inactive

$$$$
>  <SAMPLE SMILES>
Nc1ncnc2c1ncn2[C@@H]1O[C@H](COP(=O)(O)OP(=O)(O)OP(=O)(O)OP(=O)(O)OP(=O)(O)OP(=O)(O)OC[C@H]2O[C@@H](n3cnc4c(N)ncnc43)[C@H](O)[C@@H]2O)[C@@H](O)[C@H]1O

>  <effect on IP3 accumulation>
inactive

$$$$

###

SYSTEM: GPR86 (P2Y13) human receptor (Homo sapiens, UniProt Q9BPV8, T179M)
MEASUREMENT PROTOCOL: IP3 accumulation in 1321N1 cells (AG32) expressing GPR86 (P2Y13) together with Gα16
Type: cell-based
Design: expressed in transfected cells; host or cells: 1321N1 astrocytoma clone AG32 (stably expressing Gα16 from pERAEQ2), G418-selected
CONDITION DETAILS: AG32 cells; nucleotides pretreated with creatine phosphokinase and creatine phosphate; 30 s; read-out: EC50, stimulation of GPR86 receptor activity ([3H]IP3)
RECORDED METRIC: pEC50
Worth noting: pEC50 values are minus log10 of concentrations stated in mol/L.

>  <SAMPLE SMILES>
CSc1nc(N)c2ncn([C@@H]3O[C@H](COP(=O)(O)OP(=O)(O)OP(=O)(O)O)[C@@H](O)[C@H]3O)c2n1

>  <pEC50>
5.82

$$$$

Task: // lookup pEC50 for "Nc1ncnc2c1ncn2[C@@H]1O[C@H](COP(=O)(O)OP(=O)(O)OP(=O)(O)O)[C@@H](O)[C@H]1O"
Result: 5.38

###

SYSTEM: GPR86 (P2Y13) human receptor (Homo sapiens, UniProt Q9BPV8, T179M)
MEASUREMENT PROTOCOL: cAMP accumulation in CHO-K1 cells expressing GPR86 in the presence of forskolin
CONDITION DETAILS: forskolin 4 μM, 10 min; mean±S.D. of three independent experiments; read-out: IC50, inhibition of cAMP level
RECORDED METRIC: IC50 (nM)
Field format: number, assumed nM, no unit text.

Task: // lookup IC50 for "Nc1ncnc2c1ncn2[C@@H]1O[C@H](COP(=O)(O)OP(=O)(O)O)[C@@H](O)[C@H]1O"
Result: 1.5

###

Form field: pEC50 (one value per entry).
SYSTEM: GPR86 (P2Y13) human receptor (Homo sapiens, UniProt Q9BPV8, T179M)
MEASUREMENT PROTOCOL: IP3 accumulation in 1321N1 cells (AG32) expressing GPR86 (P2Y13) together with Gα16
Type: cell-based
Set-up: expressed in transfected cells; host or cells: 1321N1 astrocytoma clone AG32 (stably expressing Gα16 from pERAEQ2), G418-selected
CONDITION DETAILS: 1321N1 cells expressing GPR86 and Gα16; 30 s; mean±S.D. of three independent experiments; read-out: EC50, IP3 accumulation
Worth noting: pEC50 values are minus log10 of concentrations stated in mol/L.

>  <SAMPLE SMILES>
Nc1ncnc2c1ncn2[C@@H]1O[C@H](COP(=O)(O)OP(=O)(O)O)[C@@H](O)[C@H]1O

>  <pEC50>
7.94

$$$$

Switching to the query record.
Task: Give recorded pEC50 with GPR86 (P2Y13) human receptor (Homo sapiens, UniProt Q9BPV8, T179M) for the following molecule: "CSc1nc(N)c2ncn([C@@H]3O[C@H](COP(=O)(O)OP(=O)(O)O)[C@@H](O)[C@H]3O)c2n1"
Result: 7.85

###

SYSTEM: GPR86 (P2Y13) human receptor (Homo sapiens, UniProt Q9BPV8, T179M)
MEASUREMENT PROTOCOL: IP3 accumulation in 1321N1 cells (AG32) expressing GPR86 (P2Y13) together with Gα16
Assay type: cell-based
Set-up: expressed in transfected cells; host or cells: 1321N1 astrocytoma clone AG32 (stably expressing Gα16 from pERAEQ2), G418-selected
CONDITION DETAILS: 100 μM for 30 s; pool of G418-resistant clones expressing GPR86 and Gα16
RECORDED METRIC: IP3 response to nucleotides

>  <SAMPLE SMILES>
Nc1ncnc2c1ncn2[C@@H]1O[C@H](COP(=O)(O)OP(=O)(O)O)[C@@H](O)[C@H]1O

>  <RECORDED METRIC>
IP3 response to nucleotides

>  <RESULT>
induced an IP3 response

$$$$
>  <SAMPLE SMILES>
O=c1ccn([C@@H]2O[C@H](COP(=O)(O)OP(=O)(O)OP(=O)(O)O)[C@@H](O)[C@H]2O)c(=O)[nH]1

>  <RECORDED METRIC>
IP3 response to nucleotides

>  <RESULT>
No IP3 response

$$$$
>  <SAMPLE SMILES>
O=c1[nH]cnc2c1ncn2[C@@H]1O[C@H](COP(=O)(O)OP(=O)(O)O)[C@@H](O)[C@H]1O

>  <RECORDED METRIC>
IP3 response to nucleotides

>  <RESULT>
induced an IP3 response

$$$$
>  <SAMPLE SMILES>
O=c1[nH]cnc2c1ncn2[C@@H]1O[C@H](COP(=O)(O)OP(=O)(O)OP(=O)(O)O)[C@@H](O)[C@H]1O

>  <RECORDED METRIC>
IP3 response to nucleotides

>  <RESULT>
No IP3 response

$$$$
